Test system: DeltatarO mutant
EXPERIMENTAL_DETAILS: S. aureus survival, RN4220 and DeltatarO strains – OD600, teichoic acid synthesis inhibitors, primary screen (AID 463173)
CONDITION_DETAILS: S. aureus RN4220 wild type/DeltatarO growth, OD600, 18 h, screened at 18.75 µg/mL (by protocol)
The whole screen tested about 52,000 compounds, of which about 4,300 (8.3%) were called active. Cut-off read from the data, not from the text of the source: active = survival mostly below about 52% (no sharp cut-off); inactive = mostly above about 56%. For the sample, actives were picked, then their nearest neighbours and some compounds at random.
One label from this list, please: active, inactive

Below are worked cases with known answers.
1) CCOC(=O)C1CCN(c2ncnc3c2nnn3C)CC1 : active
2) COc1ccc(-c2onc(C)c2C)cc1S(=O)(=O)N1CCC(C)CC1 : inactive
3) CCOC(=O)C1CCN(c2nc3ccccc3nc2Cl)CC1 : active
4) CCOC(=O)C1CCCN(c2ncnc3c2nnn3C)C1 (stereo unspecified) : inactive
5) COC(=O)c1ccccc1NC(=O)c1nc(S(=O)(=O)Cc2ccccc2F)ncc1Cl : inactive

Exercise: Call for entry COc1cccc2cc(-c3nc(-c4ccc(Cl)cc4)cs3)c(=O)oc12 :
Key: inactive

Exercise: How about this molecule: O=C(Nc1ccccc1F)c1nc(SCc2ccccc2F)ncc1Cl
Key: inactive

Exercise: How about this molecule: COc1ccc(NC(=O)c2nc(SCc3ccccc3F)ncc2Cl)cc1
Key: inactive

====

System: DeltatarO mutant
EXPERIMENTAL_DETAILS: S. aureus survival, RN4220 and DeltatarO strains – OD600, teichoic acid synthesis inhibitors, primary screen (AID 463173)
CONDITION_DETAILS: S. aureus RN4220 wild type/DeltatarO growth, OD600, 18 h, active compounds read low, screened at 18.75 µg/mL (by protocol)
In all, about 52,000 compounds went through this assay and about 4,300 (8.3%) were called active. The sample as a whole holds a higher share of actives than the screen did.
READOUT_NAME: survival (%)
Write down the numeric answer in % and omit the unit.

# annotated cases, reported survival shown
1) CC1=C(C(=O)OCC2CCCCC2)C(c2cccc(F)c2F)CC(=O)N1 (stereo unspecified) : 95
2) Cc1ccnc(NC(c2cc(C)ccc2O)c2ccc3cccnc3c2O)c1 (stereo unspecified) : 4
3) Cc1ccnc(NCc2cccc3ccccc23)c1 : 93
4) O=C(C1CCCCC1)N(Cc1nc2sc3c(c2c(=O)[nH]1)CCCC3)Cc1cccs1 : 66
5) Cc1sc2nc(CN(C(=O)c3cccs3)C3CCCC3)[nH]c(=O)c2c1C : 80

Exercise: State its survival on DeltatarO mutant: O=C(Nc1ccc(Cl)cc1C(F)(F)F)c1cc(S(=O)(=O)NCc2ccccc2)ccc1F
Key: 130

Exercise: How about this compound: Cc1ccc(CNc2nc3ccccc3n3c(C)nnc23)cc1
Key: 88

Exercise: How about this compound: O=C(CN1CCC(N2CCCCC2)CC1)Nc1ccc2c(c1)OCCO2
Key: 96

Exercise: How about this compound: CC(C)CN(CCNC(=O)CCN1N=C(c2ccccc2)CCC1=O)CC(C)C
Key: 84

Exercise: How about this compound: Cc1ccc(O)c(CNc2cccc3cccnc23)c1
Key: 79

Exercise: How about this compound: Cc1ccc(-c2noc(-c3nnn(CC(=O)Nc4cc(Cl)ccc4C)c3N)n2)cc1
Key: 80

====

Test system: DeltatarO mutant
EXPERIMENTAL_DETAILS: S. aureus survival, RN4220 and DeltatarO strains – OD600, teichoic acid synthesis inhibitors, primary screen (AID 463173)
CONDITION_DETAILS: S. aureus RN4220 wild type/DeltatarO growth, OD600, 18 h, active compounds read low, screened at 18.75 µg/mL (by protocol)
Among all 52,000 compounds or so, about 4,300 (8.3%) were called active. Shown is part of a subset that was picked to be rich in actives.
With a cut-off of 80%, any survival strictly below it is called TRUE; any survival meeting it or above is called FALSE.

Exercise: is_below(survival, 80%) for CCN(CC)C(=O)CSc1nc2cc3c(cc2c(=O)n1CCCC(=O)NCc1ccc(OC)cc1)OCO3 ?
Key: TRUE

====

Test system: DeltatarO mutant
EXPERIMENTAL_DETAILS: S. aureus survival, RN4220 and DeltatarO strains – OD600, teichoic acid synthesis inhibitors, primary screen (AID 463173)
CONDITION_DETAILS: S. aureus RN4220 wild type/DeltatarO growth, OD600, 18 h, active compounds read low, screened at 18.75 µg/mL (by protocol)
About 4,300 (8.3%) of roughly 52,000 compounds were called active. The entries come from a sample that favours actives as a whole.
// reported survival per item
Write down the numeric answer in % and omit the unit.

# annotated cases, reported survival shown
1) O=C1c2[nH]nc(-c3ccccc3O)c2C(c2ccccc2F)N1Cc1ccncc1 (stereo not drawn) : 94
2) O=C(NCC(c1cccnc1)N1CCc2ccccc21)c1ccccc1Br (stereo not drawn) : 56
3) CCc1ccc(C(c2ccccc2)c2c(C)[nH]c3ccccc23)s1 (stereo not drawn) : 25

Exercise: State its survival on DeltatarO mutant: Cc1ccc(C(c2ccccc2)c2c(C)[nH]c3ccccc23)s1 (stereo not drawn)
Key: 26

====

Tested on: DeltatarO mutant
EXPERIMENTAL_DETAILS: S. aureus survival, RN4220 and DeltatarO strains – OD600, teichoic acid synthesis inhibitors, primary screen (AID 463173)
CONDITION_DETAILS: S. aureus RN4220 wild type/DeltatarO growth, OD600, 18 h, active compounds read low, screened at 18.75 µg/mL (by protocol)
Among all 52,000 compounds or so, about 4,300 (8.3%) were called active. Only a selection was taken, and actives are over-represented in it overall.
READOUT_NAME: survival (%)
Write down the numeric answer in % and omit the unit.

1. COc1ccc(-c2nc3cc(C(C)C)ccc3o2)cc1NC(=O)c1ccc(C)c(Cl)c1 : 21
2. CCC(C)NC(=O)Cn1c(=O)cc(-c2ccccc2)c2c(C)nn(C)c21 (stereo unspecified) : 70
3. CCN(c1ccc(OC)cc1)S(=O)(=O)c1nnc(NC(=O)COc2ccc(F)cc2)s1 : 70
4. COc1ccc(Br)cc1CNC(=O)c1cnc2sc(N3CCCC3)nn2c1=O : 98
5. CN(C)S(=O)(=O)c1ccc2c(c1)N(CC(=O)NCc1ccccc1)C(=O)C1CCCCN21 (stereo unspecified) : 67
6. CC1=C(C#N)C(=O)NC(C)(C)C1 : 76
7. COc1ccc(C(CC(=O)NCc2ccccc2Cl)N2Cc3ccccc3C2=O)cc1OC (stereo unspecified) : 80
8. COc1ccc(-c2nc3cc(NC(=O)COc4ccccc4C)ccc3o2)cc1 : 60

Exercise: Given CCN(CC)c1ccc(NC(=O)c2cnn(-c3ccccc3)c2-n2cccc2)c(C)c1 , state its recorded survival.
Key: 115

Exercise: How about this compound: CCN(c1ccc(OC)cc1)S(=O)(=O)c1nnc(NC(=O)c2ccccc2C)s1
Key: 37

Exercise: How about this compound: COc1ccc(-c2cc(C(=O)N3CCN(c4ccc(F)cc4)CC3)no2)cc1OC
Key: 57

Exercise: How about this compound: CC1=C(c2ccc(Cl)cc2)S(=O)(=O)N=C1N1CCN(c2cccc(C(F)(F)F)c2)CC1
Key: 71

Exercise: How about this compound: CCCOc1ccc(-c2nonc2NC(=O)c2ccco2)cc1OCCC
Key: 111

Exercise: How about this compound: Cc1cccc(N(C)c2nc3ccccc3c3nnc(C)n23)c1
Key: 118

Exercise: How about this compound: COc1ccc2c(c1)c1c(c(=O)n(-c3ccc(F)c(Cl)c3)c(=O)n1Cc1ccccc1C)n2C
Key: 83

Exercise: How about this compound: O=C(CN1C(=O)CCSc2ccccc21)Nc1ccccc1F
Key: 85

Exercise: How about this compound: Cc1ccccc1C(=O)Nc1nnc(S(=O)(=O)N(C)Cc2ccc(Cl)cc2)s1
Key: 102

Exercise: How about this compound: COc1ccccc1N1CCN(C(=O)c2cc(-c3ccc(F)cc3)on2)CC1
Key: 46

Exercise: How about this compound: CCOC(=O)c1cnc2ccc(OCC)cc2c1Nc1ccc(OCc2ccccc2Cl)cc1
Key: 9

Exercise: How about this compound: CCc1ccc(C2CC(=O)c3c([nH]c(C(=O)OC4CCCC4)c3C)C2)cc1 (stereo unspecified)
Key: 97

Exercise: How about this compound: COc1cccc(-c2cc(C(=O)N3CCN(c4ccccc4OC)CC3)no2)c1
Key: -4

====

// reported survival per item
Test system: DeltatarO mutant
EXPERIMENTAL_DETAILS: S. aureus survival, RN4220 and DeltatarO strains – OD600, teichoic acid synthesis inhibitors, primary screen (AID 463173)
CONDITION_DETAILS: S. aureus RN4220 wild type/DeltatarO growth, OD600, 18 h, active compounds read low, screened at 18.75 µg/mL (by protocol)
Screen size: about 52,000 compounds; about 4,300 (8.3%) were called active. This excerpt belongs to a sample that is enriched for actives.
Write down the numeric answer in % and omit the unit.

1) CCOc1cc(CNC(=O)c2ccc(Cn3c(=O)c4cccn4c4cccnc43)cc2)ccc1OC : 52
2) O=S(=O)(NCCS(=O)(=O)N1CCN(c2ccccc2)CC1)c1ccc(Br)cc1 : 91
3) COc1ccc(CNC(=O)c2ccc(Cn3c(=O)c4cccn4c4cccnc43)cc2)c(OC)c1 : 58
4) O=C(NCCc1ccccc1)c1ccc(Cn2c(=O)c3cccn3c3cccnc32)cc1 : 51
5) O=C(CCn1cccn1)NCc1ccc(Cl)cc1 : 73

Exercise: Given CCOc1ccccc1CNC(=O)c1ccc(Cn2c(=O)c3cccn3c3cccnc32)cc1 , state its recorded survival.
Key: 44

Exercise: How about this compound: Cc1ccc2cc3cc(C(=O)N(C)c4ccccc4C)oc3nc2c1
Key: 53

Exercise: How about this compound: O=C(NCc1ccc(Cl)cc1)c1ccc(Cn2c(=O)c3cccn3c3cccnc32)cc1
Key: 49
